system: KRas G12D mutant; assay: Ras GTP Binding Domain Inhibition Assay (Ras Superfamily Assay); conditions: 20 μM compound, without SOS
observation.type: KRas G12D mutant: % inh.

smiles.code	experimental.value
COc1cccc(Nc2nc(-c3nccn3C)nn3ccc(C)c23)n1	0 (0 = 0% inhibition)

* * *

system: KRas G12C mutant; test: Ras GTP Binding Domain Inhibition Assay (Ras Superfamily Assay); settings: 20 μM compound, with SOS
observation.type: KRas G12C mutant + SOS: % inh.

smiles.code	observation.type	experimental.value
COCCNc1nc(-c2nccn2C)nn2cc(-c3cccc(OC)c3Cl)c(-c3ccccc3)c12	KRas G12C mutant + SOS: % inh.	A (A = 1-25% inhibition)
COc1cc(Nc2nc(-c3nccn3C)nn3cc(-c4cccc(OC)n4)c(C)c23)ncn1	KRas G12C mutant + SOS: % inh.	A (A = 1-25% inhibition)
